Cited source: patent US9745291B2

Tested target: PRMT5/MEP50 (Homo sapiens (Human))
Sequence (O14744 other isoform, or with tags, fused parts or gaps): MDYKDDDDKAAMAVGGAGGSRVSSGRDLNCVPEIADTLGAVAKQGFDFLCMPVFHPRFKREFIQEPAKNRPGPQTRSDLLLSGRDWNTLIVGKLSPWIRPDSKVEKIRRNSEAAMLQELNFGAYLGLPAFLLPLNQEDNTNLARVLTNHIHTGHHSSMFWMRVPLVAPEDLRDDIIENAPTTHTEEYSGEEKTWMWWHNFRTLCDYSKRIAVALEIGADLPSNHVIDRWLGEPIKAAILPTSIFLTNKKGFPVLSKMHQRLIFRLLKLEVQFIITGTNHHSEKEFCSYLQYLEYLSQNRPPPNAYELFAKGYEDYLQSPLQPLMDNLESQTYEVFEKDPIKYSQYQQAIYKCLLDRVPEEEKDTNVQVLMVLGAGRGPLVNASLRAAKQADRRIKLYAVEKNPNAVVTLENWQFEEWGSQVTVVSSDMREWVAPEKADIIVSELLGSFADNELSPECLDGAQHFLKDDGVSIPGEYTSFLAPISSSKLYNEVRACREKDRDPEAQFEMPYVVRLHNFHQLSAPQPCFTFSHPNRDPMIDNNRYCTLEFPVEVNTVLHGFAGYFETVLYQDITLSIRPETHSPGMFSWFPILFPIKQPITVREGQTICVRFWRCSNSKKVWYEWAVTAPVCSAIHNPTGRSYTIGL
Sequence (Q9BQA1 other isoform, or with tags, fused parts or gaps partner): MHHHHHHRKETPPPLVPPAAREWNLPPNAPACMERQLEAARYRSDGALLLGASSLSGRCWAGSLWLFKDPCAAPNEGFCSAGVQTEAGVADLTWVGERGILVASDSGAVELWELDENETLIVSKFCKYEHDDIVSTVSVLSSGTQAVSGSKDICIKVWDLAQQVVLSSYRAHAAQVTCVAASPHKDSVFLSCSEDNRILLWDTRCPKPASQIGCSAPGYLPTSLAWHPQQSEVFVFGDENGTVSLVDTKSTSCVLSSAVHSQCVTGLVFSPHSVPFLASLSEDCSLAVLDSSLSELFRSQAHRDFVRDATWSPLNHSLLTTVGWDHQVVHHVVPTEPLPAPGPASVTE
Method description: PRMT5 Biochemical Assay (PRMT5/MEP50 enzyme assay on peptide substrate, 3H-SAM Flashplate)
Condition: PRMT5 biochemical assay; read-out: Biochemical IC50
pIC50: −log10 of the molar value.
Observed property: pIC50

[[record]]
compound = "Cc1cccc(OCC(=O)NCC(O)CN2CCc3ccccc3C2)c1 (stereo not shown) [Compound 26]"
observed_property = "pIC50"
result = "> 7.00"

[[record]]
compound = "CC1CN(S(=O)(=O)c2ccccc2OCC(=O)NC[C@@H](O)CN2CCc3ccccc3C2)CCN1C (stereo partly shown) [Compound 211]"
observed_property = "pIC50"
result = "5.00 to 6.00"

[[record]]
compound = "CC(=O)Nc1cccc(OCC(=O)NC[C@@H](O)CN2CCc3ccccc3C2)c1C1CCCNC1 (stereo partly shown) [Compound 199]"
observed_property = "pIC50"
result = "5.00 to 6.00"

[[record]]
compound = "CN(C)c1cccc(OCC(=O)NCC(O)CN2CCc3ccccc3C2)c1S(N)(=O)=O (stereo not shown) [Compound 169]"
observed_property = "pIC50"
result = "> 7.00"

[[record]]
compound = "O=C(COc1ccccc1N1CCNCC1)NCC(O)CN1CCc2ccccc2C1 (stereo not shown) [Compound 79]"
observed_property = "pIC50"
result = "> 7.00"

[[record]]
compound = "Cn1ncc2ccc(OCC(=O)NC[C@@H](O)CN3CCc4ccccc4C3)cc21 [Compound 160]"
observed_property = "pIC50"
result = "6.00 to 7.00"

[[record]]
compound = "COc1ccc2[nH]c(CCC(=O)NC[C@H](O)CN3CCc4ccccc4C3)nc2c1 [Compound 249]"
observed_property = "pIC50"
result = "> 7.00"

[[record]]
compound = "O=C(COc1cccc2c1CCCN2Cc1ccccc1)NCC(O)CN1CCc2ccccc2C1 (stereo not shown) [Compound 4]"
observed_property = "pIC50"
result = "> 7.00"

[[record]]
compound = "CCN1CCN(c2cccc(OCC(=O)NC[C@@H](O)CN3CCc4ccccc4C3)c2S(=O)(=O)N(C)C)CC1 [Compound 277]"
observed_property = "pIC50"
result = "> 7.00"

[[record]]
compound = "CNS(=O)(=O)c1ccccc1OCC(=O)NCC(O)CN1CCc2ccccc2C1 (stereo not shown) [Compound 123]"
observed_property = "pIC50"
result = "> 7.00"

[[record]]
compound = "CN(CCN)S(=O)(=O)c1ccccc1OCC(=O)NC[C@@H](O)CN1CCc2ccccc2C1 [Compound 198]"
observed_property = "pIC50"
result = "> 7.00"

[[record]]
compound = "O=C(CCn1cnc2ccccc21)NC[C@@H](O)CN1CCc2ccccc2C1 [Compound 206]"
observed_property = "pIC50"
result = "5.00 to 6.00"

[[record]]
compound = "Cn1ccnc1-c1cccc(OCC(=O)NC[C@@H](O)CN2CCc3ccccc3C2)c1 [Compound 187]"
observed_property = "pIC50"
result = "5.00 to 6.00"

[[record]]
compound = "CC(C)N1CCCC(c2c(NS(C)(=O)=O)cccc2OCC(=O)NC[C@@H](O)CN2CCc3ccccc3C2)C1 (stereo partly shown) [Compound 266]"
observed_property = "pIC50"
result = "6.00 to 7.00"

[[record]]
compound = "COc1ccccc1OCC(=O)NCC(O)CN1CCc2ccccc2C1 (stereo not shown) [Compound 22]"
observed_property = "pIC50"
result = "> 7.00"

[[record]]
compound = "CC1NCCCC1c1ccccc1OCC(=O)NC[C@@H](O)CN1CCc2ccccc2C1 (stereo partly shown) [Compound 254]"
observed_property = "pIC50"
result = "6.00 to 7.00"

